Just for reference, paper doi:10.1101/842088 is where these values come from.

molecular target: NS3h WT (dengue virus 4, UniProt P09866 1646-2092); experiment: fluorescence polarization
Sequence (P09866 1646-2092): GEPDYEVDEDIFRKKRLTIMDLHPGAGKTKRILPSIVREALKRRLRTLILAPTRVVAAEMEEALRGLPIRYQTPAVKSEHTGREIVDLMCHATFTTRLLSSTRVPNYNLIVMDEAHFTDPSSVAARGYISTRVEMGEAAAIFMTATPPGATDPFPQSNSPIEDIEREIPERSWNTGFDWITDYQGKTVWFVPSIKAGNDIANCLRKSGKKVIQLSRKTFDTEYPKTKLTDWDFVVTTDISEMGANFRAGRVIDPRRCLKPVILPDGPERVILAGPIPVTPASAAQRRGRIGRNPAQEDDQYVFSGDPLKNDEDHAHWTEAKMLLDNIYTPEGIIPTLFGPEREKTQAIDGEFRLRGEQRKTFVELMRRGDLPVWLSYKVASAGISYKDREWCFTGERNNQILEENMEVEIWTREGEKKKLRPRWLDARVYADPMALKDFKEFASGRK
ASSAY_READOUT: Kd (nM)
Response body: numeric value in nM, unit text excluded.

Which Kd is listed for AGUAA (ssRNA, 5'-diphosphate (pp (so in the source))) [ppAGUAA Alexa-488 RNA oligo] ?
1900
